Where do the numbers come from? From ChEMBL document CHEMBL1145007.

# tested.on: Acetylcholinesterase (Bos taurus)
# Sequence (P23795 whole entry): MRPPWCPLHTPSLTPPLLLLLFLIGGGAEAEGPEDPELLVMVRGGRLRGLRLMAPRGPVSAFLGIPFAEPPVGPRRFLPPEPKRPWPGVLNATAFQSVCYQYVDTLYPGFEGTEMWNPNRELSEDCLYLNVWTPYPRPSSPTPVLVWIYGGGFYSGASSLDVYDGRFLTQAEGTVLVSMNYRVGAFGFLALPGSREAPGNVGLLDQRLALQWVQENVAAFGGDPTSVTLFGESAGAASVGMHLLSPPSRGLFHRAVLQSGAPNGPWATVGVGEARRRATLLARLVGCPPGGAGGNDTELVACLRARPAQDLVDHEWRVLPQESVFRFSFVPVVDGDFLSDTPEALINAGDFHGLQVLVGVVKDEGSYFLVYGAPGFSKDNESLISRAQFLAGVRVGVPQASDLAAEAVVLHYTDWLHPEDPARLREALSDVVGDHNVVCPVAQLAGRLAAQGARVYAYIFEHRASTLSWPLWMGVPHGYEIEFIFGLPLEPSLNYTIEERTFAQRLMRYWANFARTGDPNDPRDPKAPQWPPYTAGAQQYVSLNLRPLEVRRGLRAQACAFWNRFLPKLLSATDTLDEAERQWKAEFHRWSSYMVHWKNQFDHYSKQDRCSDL
Measured pKi accompanies every entry in the list below.
Please treat pKi as minus the base-10 logarithm of the molar concentration.

>>> df
                                   compound  recorded_result
0  c1ccc2c(NCCCCCCCCSc3c4c(nc5ccccc35)CCCC4)c3c(nc2c1)CCCC3             6.60
1  CC(=O)N(CCCNc1c2c(nc3ccccc13)CCCC2)CCCNc1c2c(nc3ccccc13)CCCC2             5.82
2  CN(CCCNc1c2c(nc3ccccc13)CCCC2)CCCNc1c2c(nc3ccccc13)CCCC2            10.22

Task: Please look at this molecule and report its pKi: CN(CCCNc1c2c(nc3ccccc13)CCCC2)CCCNc1c2c(nc3cc(Cl)cc(Cl)c13)CCCC2
Result: 8.43

Task: Please look at this molecule and report its pKi: c1ccc2c(NCCCCCSc3c4c(nc5ccccc35)CCCC4)c3c(nc2c1)CCCC3
Result: 6.68

---

# tested.on: Acetylcholinesterase (Homo sapiens)
# Sequence (P22303 whole entry): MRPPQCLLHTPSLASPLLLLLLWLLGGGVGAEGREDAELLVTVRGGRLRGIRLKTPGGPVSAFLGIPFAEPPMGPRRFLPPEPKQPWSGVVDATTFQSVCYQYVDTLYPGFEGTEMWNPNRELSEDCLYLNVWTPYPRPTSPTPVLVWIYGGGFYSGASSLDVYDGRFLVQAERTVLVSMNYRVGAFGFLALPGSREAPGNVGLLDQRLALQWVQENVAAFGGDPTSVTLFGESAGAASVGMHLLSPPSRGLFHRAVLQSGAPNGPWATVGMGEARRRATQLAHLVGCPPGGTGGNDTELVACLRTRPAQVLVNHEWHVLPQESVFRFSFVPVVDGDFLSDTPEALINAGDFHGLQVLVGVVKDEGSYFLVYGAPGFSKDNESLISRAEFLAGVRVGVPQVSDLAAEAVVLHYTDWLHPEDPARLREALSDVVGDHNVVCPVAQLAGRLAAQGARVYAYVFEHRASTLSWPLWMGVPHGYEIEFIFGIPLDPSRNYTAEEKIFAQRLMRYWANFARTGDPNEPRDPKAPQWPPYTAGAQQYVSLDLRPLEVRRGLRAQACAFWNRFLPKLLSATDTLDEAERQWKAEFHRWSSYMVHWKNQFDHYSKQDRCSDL
property.label: pKi
Please treat pKi as minus the base-10 logarithm of the molar concentration.

Task: Quote Acetylcholinesterase (Homo sapiens) pKi for entry CCC1=CC2Cc3nc4cc(Cl)ccc4c(N)c3[C@@H](C1)C2 .
Result: 10.59

---

Measured Ki accompanies every entry in the list below.
# tested.on: Butyrylcholinesterase (Equus caballus)
# Sequence (Q9N1N9 whole entry): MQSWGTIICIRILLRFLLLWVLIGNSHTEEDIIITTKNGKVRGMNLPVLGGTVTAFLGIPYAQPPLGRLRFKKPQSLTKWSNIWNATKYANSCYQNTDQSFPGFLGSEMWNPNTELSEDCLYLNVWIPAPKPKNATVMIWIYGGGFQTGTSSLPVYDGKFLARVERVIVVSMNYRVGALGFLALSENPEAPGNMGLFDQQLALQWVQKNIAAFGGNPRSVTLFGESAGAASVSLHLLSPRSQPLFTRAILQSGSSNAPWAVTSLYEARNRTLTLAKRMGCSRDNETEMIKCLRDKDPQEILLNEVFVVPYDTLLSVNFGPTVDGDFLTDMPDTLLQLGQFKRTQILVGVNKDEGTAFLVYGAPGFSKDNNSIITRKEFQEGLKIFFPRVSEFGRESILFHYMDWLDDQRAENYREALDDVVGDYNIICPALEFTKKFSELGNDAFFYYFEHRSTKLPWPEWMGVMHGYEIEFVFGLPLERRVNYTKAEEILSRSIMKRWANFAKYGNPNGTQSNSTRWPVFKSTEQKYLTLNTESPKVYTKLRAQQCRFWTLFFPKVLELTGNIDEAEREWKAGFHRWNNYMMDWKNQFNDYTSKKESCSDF
Reply with just the number (in nM).

>>> df
                                   compound  property_label  recorded_result
0  c1ccc2c(NCCCCCCCCSc3c4c(nc5ccccc35)CCCC4)c3c(nc2c1)CCCC3              Ki              0.4

Now for the molecule whose Ki we want.
Task: Quote Butyrylcholinesterase (Equus caballus) Ki for entry CN(CCCNc1c2c(nc3ccccc13)CCCC2)CCCNc1c2c(nc3ccccc13)CCCC2 .
Result: 6

---

# tested.on: Butyrylcholinesterase (Equus caballus)
property.label: Ki
# number then unit; no other words

Use the examples below as a reference point.
>>> df
                                   compound                               tested_on  recorded_result
0  CC(=O)N(CCCNc1c2c(nc3ccccc13)CCCC2)CCCNc1c2c(nc3ccccc13)CCCC2  Butyrylcholinesterase (Equus caballus)             2 nM
1  CN(CCCNc1c2c(nc3ccccc13)CCCC2)CCCNc1c2c(nc3cc(Cl)cc(Cl)c13)CCCC2  Butyrylcholinesterase (Equus caballus)            11 nM

Task: Quote Butyrylcholinesterase (Equus caballus) Ki for entry c1ccc2c(NCCCCCSc3c4c(nc5ccccc35)CCCC4)c3c(nc2c1)CCCC3 .
Result: 10 nM
